Catalogue of CD40L-induced NF-kB luciferase activity values
Tested on: BL2-NFkB-Luc
Assay info: CD40L-induced NF-kB luciferase activity, plate-corrected, relative to DMSO (0) and IKK inhibitor VII (-100) controls (% normalized activity); higher = more NF-kB reporter activity (less inhibition)
Test settings: 9.4 µM; stimulus: tCD40L 64 ng/ml; 4.5 h
In all, about 1,900 compounds were measured (“CD40L-induced NF-kB luciferase activity, plate-corrected, relative to DMSO (0) and IKK inhibitor VII (-100) controls”: median about 0.032, lowest 2% from about -26 on). The sample as a whole holds a higher share of the lowest values than the screen did.

Previously resolved entries follow.
INSERT INTO results (molecule, result) VALUES
  ('O=C(/C=C/c1ccc2c(c1)OCCCO2)c1ccc2ccccc2c1O', 44.2),
  ('C[C@H]1C[C@@H]2[C@H]([C@@H](O)C[C@@]3(C)[C@H]2CC[C@]3(O)C(=O)CO)[C@@]2(C)C=CC(=O)C=C12', -35.9),
  ('C[C@]12CCC(=O)C=C1CC[C@@H]1[C@@H]2C(=O)C[C@@]2(C)[C@H]1CC[C@]2(O)C(=O)CO', -6.47);

What CD40L-induced NF-kB luciferase activity value was documented for this molecule, COc1cc(C=NCC2OCCc3ccccc32)cc(OC)c1 (stereo unspecified) ?
-1.7

Look up CD40L-induced NF-kB luciferase activity: `COc1cc2cc(C(=O)O)[nH]c2c(OC)c1OC`
1.43

Looking for the measured CD40L-induced NF-kB luciferase activity of CC1/C(=C\c2ccc(Cl)cc2)C(=O)C2CC1C2(C)C (stereo unspecified) , can you help?
3.76

Reported CD40L-induced NF-kB luciferase activity, molecule `O=C(NC(=S)N1CCCCC1)c1cccnc1` : ____
-3.04

Which CD40L-induced NF-kB luciferase activity value belongs to `C=C(C)c1nc2cc(OC)c(OC)cc2c(=O)o1` ?
-30.6

###

Test system: BL2-NFkB-Luc
Assay info: CD40L-induced NF-kB luciferase activity, plate-corrected, relative to DMSO (0) and IKK inhibitor VII (-100) controls (% normalized activity); higher = more NF-kB reporter activity (less inhibition)
Test settings: 9.4 µM; stimulus: tCD40L 64 ng/ml; 4.5 h
Over roughly 1,900 compounds, “CD40L-induced NF-kB luciferase activity, plate-corrected, relative to DMSO (0) and IKK inhibitor VII (-100) controls” has its median near 0.032; the lowest 2% begin near -26. For the sample, the lowest values were picked, then their nearest neighbours and some compounds at random.
Class field: derived from CD40L-induced NF-kB luciferase activity; ranges lowest = under -5, middle = from -5 up to -0.8, highest = -0.8 and over

INSERT INTO results (query_smiles, group_label) VALUES
  ('CC(=O)OCC(=O)[C@@]12OC3(CCCC3)O[C@@H]1C[C@H]1[C@@H]3CCC4=CC(=O)C=C[C@]4(C)[C@@]3(F)[C@@H](O)C[C@@]12C', 'lowest'),
  ('COc1cc2c(cc1OC)C(=S)NC(C)(C)C2', 'lowest'),
  ('Cc1cc(C=NO)c(C)n1-c1ccc(Br)cc1', 'middle'),
  ('CC1(C)Cc2ccccc2-c2nc(-c3ccccc3)oc(=O)c21', 'highest');

Lab note: which band did `COc1cc(NC(=O)COc2ccccc2)c(OC)cc1NC(C)=O` land in?
highest

Categorize the following entry: `C[C@]12CC[C@H]3[C@@H](CCC4=CC(=O)CC[C@@]43C)[C@@H]1CC[C@@H]2C(=O)CO`
middle

For the record `O=C(COc1ccc(F)cc1)OCCN1CCOCC1` , report the class its CD40L-induced NF-kB luciferase activity corresponds to.
highest

Field: class (CD40L-induced NF-kB luciferase activity) — entry: `C[C@@H]1C[C@H]2[C@@H]3CCC4=CC(=O)C=C[C@]4(C)[C@@]3(F)[C@@H](O)C[C@]2(C)[C@H]1C(=O)CO`
lowest
